Target: T1, human RANTES (human, UniProt P13501 24-91)
T1 construct: also called hRANTES
T1 sequence (looked up): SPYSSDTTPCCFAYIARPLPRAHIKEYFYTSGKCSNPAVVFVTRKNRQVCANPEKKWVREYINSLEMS
Test: ELISA, coated antigen
Reported ELISA OD by item:

# BINDER, UNIT LABEL, ELISA OD
records = [
    ("anti-MCP-1 mAb 2.4.1 (antibody, V domains shown) VH: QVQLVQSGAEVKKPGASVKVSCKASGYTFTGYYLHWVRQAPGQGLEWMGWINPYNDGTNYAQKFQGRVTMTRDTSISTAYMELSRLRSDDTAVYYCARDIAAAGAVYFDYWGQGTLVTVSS VL: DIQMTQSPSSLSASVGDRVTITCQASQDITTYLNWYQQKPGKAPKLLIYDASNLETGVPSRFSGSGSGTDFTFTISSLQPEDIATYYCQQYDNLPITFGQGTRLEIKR", "OD450", 0.046),
    ("anti-MCP-1 mAb 3.11.1 (antibody, human IgG4, kappa, V domains shown) VH: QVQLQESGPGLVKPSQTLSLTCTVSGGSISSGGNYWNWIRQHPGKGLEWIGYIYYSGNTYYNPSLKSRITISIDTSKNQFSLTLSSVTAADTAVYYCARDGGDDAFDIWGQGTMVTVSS VL: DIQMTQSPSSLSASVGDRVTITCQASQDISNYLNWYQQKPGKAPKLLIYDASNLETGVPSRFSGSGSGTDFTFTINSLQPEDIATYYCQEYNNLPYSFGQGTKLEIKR", "OD450", 0.064),
    ("anti-MCP-1 mAb 1.6.1 (antibody, V domains shown) VH: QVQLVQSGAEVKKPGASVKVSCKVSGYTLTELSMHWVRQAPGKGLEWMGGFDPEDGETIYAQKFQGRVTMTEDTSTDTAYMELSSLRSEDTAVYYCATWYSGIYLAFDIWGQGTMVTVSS VL: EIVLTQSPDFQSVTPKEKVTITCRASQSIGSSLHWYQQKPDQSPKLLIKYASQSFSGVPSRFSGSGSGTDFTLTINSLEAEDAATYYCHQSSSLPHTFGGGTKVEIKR", "OD450", 0.046),
]
